assayed-system: BK2 receptor (Oryctolagus cuniculus, UniProt Q28642)
Construct: when administered to an intact animal; from tissue; host or cells: whole rabbit (systemic arterial blood pressure), LPS-pretreated
Sequence (Q28642 whole entry): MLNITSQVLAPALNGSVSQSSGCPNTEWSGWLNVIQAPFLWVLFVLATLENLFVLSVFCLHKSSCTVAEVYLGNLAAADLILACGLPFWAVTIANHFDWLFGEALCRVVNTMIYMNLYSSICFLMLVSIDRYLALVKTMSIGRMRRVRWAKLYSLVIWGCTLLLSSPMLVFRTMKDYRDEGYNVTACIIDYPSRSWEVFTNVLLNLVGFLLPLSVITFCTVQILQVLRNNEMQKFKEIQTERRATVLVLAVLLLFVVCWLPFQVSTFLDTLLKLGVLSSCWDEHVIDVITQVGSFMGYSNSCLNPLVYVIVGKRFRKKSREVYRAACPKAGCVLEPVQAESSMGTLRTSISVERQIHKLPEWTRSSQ
assay-explanation: blood pressure response to BK2 agonist in LPS-pretreated rabbits
Assay type: in vivo, rabbit
Set-up: key: +: indicates complete blockade of the blood pressure response to the appropriate agonist; +/-: indicates partial blockade; -: indicates no observable effect at the dose indicated
applied-conditions: 1 μg kg^-1 min^-1; rabbits given LPS (10 μg) 20 hours before
Square brackets hold non-standard residues; d marks the D form. Peptide text beside a SMILES is read from it. Oic = O=C(O)[C@@H]1C[C@@H]2CCCC[C@@H]2N1; Hyp = O=C(O)[C@@H]1C[C@@H](O)CN1; dTic = O=C(O)[C@H]1Cc2ccccc2CN1; 2Thi = N[C@@H](Cc1cccs1)C(=O)O
assay-endpoint: OBSERVED ANTAGONIST ACTIVITY BK2

>>> result("N=C(N)NCCC[C@@H](N)C(=O)N[C@@H](CCCNC(=N)N)C(=O)N1CCC[C@H]1C(=O)N1C[C@H](O)C[C@H]1C(=O)NCC(=O)N[C@@H](Cc1cccs1)C(=O)N[C@@H](CO)C(=O)N1Cc2ccccc2C[C@@H]1C(=O)N1[C@H](C(=O)O)C[C@@H]2CCCC[C@@H]21 [CP-0345] (H-[dR]RP[Hyp]G[2Thi]S[dTic][Oic]-OH; N-terminus and C-terminus assumed)")
"-"
>>> result("N=C(N)NCCC[C@@H](N)C(=O)N[C@@H](CCCNC(=N)N)C(=O)N1CCC[C@H]1C(=O)N1C[C@H](O)C[C@H]1C(=O)NCC(=O)N[C@@H](Cc1ccccc1)C(=O)N[C@@H](CO)C(=O)N1Cc2ccccc2C[C@@H]1C(=O)N1[C@H](C(=O)O)C[C@@H]2CCCC[C@@H]21 [CP-0267] (HELM PEPTIDE1{[dR].R.P.[Hyp].G.F.S.[O=C([C@H]1Cc2ccccc2CN1[*:1])[*:2]].[O=C(O)[C@@H]1C[C@@H]2CCCC[C@@H]2N1[*:1]]}$$$$V2.0)")
"-"
>>> result("CC(C)C[C@H](NC(=O)[C@@H](Cc1ccccc1)NC(=O)[C@H](CS)NC(=O)[C@H](Cc1ccccc1)NC(=O)CNC(=O)[C@@H]1C[C@@H](O)CN1C(=O)[C@@H]1CCCN1C(=O)[C@H](CCCNC(=N)N)NC(=O)[C@H](N)CCCNC(=N)N)C(=O)N[C@@H](CCCNC(=N)N)C(=O)O [CP-0126] (HELM PEPTIDE1{[dR].R.P.[Hyp].G.F.C.[dF].L.R}$$$$V2.0)")
"+"
>>> result("CC(C)C[C@H](NC(=O)[C@@H]1CCCN1C(=O)[C@H](CO)NC(=O)[C@H](Cc1ccccc1)NC(=O)CNC(=O)[C@@H]1CCCN1C(=O)[C@@H]1CCCN1C(=O)[C@H](CCCNC(=N)N)NC(=O)[C@@H](N)CCCCN)C(=O)O [CP-0298, reference compound]")
"-"
